target: acetylcholine receptor (Homo sapiens); experiment: SPR binding affinity (RU) of optimized 5mer/6mer/7mer peptides, Examples 6-7; details: 6mer-2 Top sequence; SPR; peptides tested at 10 μM
quantity_measured: Binding affinity (Ru)
One number for each entry, in Ru.

substance: 6mer-2-80 (RRQYKR)
quantity_measured: Binding affinity
units: Ru
measured_result: 148

Would you mind giving Binding affinity for every substance in the list below?
1. 6mer-2-96 (KWRQRK)
2. 6mer-2-199 (RGQYKR)
3. 6mer-2-67 (KLFCKK)

154
137
124

Provide Binding affinity for all items below, preserving their order.
1. 6mer-2-168 (RVFLKR)
2. 6mer-2-101 (RLICRK)
3. 6mer-2-129 (KSVLRK)
4. 6mer-2-128 (KSYYRR)
5. 6mer-2-159 (RQYYRK)
6. 6mer-2-169 (KRQSRR)
7. 6mer-2-89 (KSRSKK)

1: 135; 2: 154; 3: 139; 4: 147; 5: 127; 6: 123; 7: 141

Go through the items and report each one's Binding affinity.
1. 6mer-2-4 (RSYYRR)
2. 6mer-2-167 (KLFQKR)
3. 6mer-2-14 (RGRQKK)

[125, 145, 153]

----------
Target: acetylcholine receptor (Homo sapiens, UniProt P02708)
Sequence (P02708 21-457): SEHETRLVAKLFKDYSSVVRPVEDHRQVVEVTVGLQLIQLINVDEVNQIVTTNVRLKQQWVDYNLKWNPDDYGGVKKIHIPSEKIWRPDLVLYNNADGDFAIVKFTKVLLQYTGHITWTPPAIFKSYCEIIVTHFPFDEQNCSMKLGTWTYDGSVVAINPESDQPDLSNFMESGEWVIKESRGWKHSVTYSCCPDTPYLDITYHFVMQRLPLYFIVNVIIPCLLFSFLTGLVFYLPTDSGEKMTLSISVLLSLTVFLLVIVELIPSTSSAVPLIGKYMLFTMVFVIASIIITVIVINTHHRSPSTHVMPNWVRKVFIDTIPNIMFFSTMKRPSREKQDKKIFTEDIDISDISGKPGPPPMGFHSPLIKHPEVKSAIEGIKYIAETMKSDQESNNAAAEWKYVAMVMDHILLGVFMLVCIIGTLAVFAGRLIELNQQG
Assay: SPR binding affinity (RU) of optimized 5mer/6mer/7mer peptides, Examples 6-7
Conditions: 6mer-1 Top sequence; SPR; peptides tested at 10 μM
Method: Based on the frequencies of occurrence of the top 7 amino acids from Table 7 in Example 5, 600 peptides comprising these amino acids (top combinations) and those comprising the 13 less frequently occurring amino acids (bottom combinations) were synthesized for each series of 5mer, 6mer-1, and 6mer-2. The binding affinity of each sequence for the acetylcholine receptor was measured using Surface Plasmon Resonance (SPR) analysis method. The peptides were tested at a concentration of 10 μM. […]
quantity_measured: Binding affinity (Ru)
One number for each entry, in Ru.

substance: 6mer-1-377 (KRWITR)
quantity_measured: Binding affinity
measured_result: 148
//
substance: 6mer-1-318 (KKSRRK)
quantity_measured: Binding affinity
measured_result: 145
//
substance: 6mer-1-220 (KRQRQK)
quantity_measured: Binding affinity
measured_result: 148

State the recorded Binding affinity for every item in the following list.
1. 6mer-1-360 (KRVFLK)
2. 6mer-1-247 (KKVRQK)
3. 6mer-1-286 (RKLISK)
4. 6mer-1-325 (RRQIQR)
5. 6mer-1-315 (RKQQTK)

[148, 122, 139, 142, 128]

Need Binding affinity for each of these substances.
1. 6mer-1-255 (KKGFQK)
2. 6mer-1-206 (RRLQTR)
3. 6mer-1-290 (RKQLTK)
4. 6mer-1-376 (RRQLRK)

[139, 121, 146, 121]

Hi! Can you tell me Binding affinity for each of these substances?
1. 6mer-1-207 (KKSQQR)
2. 6mer-1-326 (RKWIYK)
3. 6mer-1-353 (KRLYLK)
4. 6mer-1-1225 (RKLICK)
5. 6mer-1-369 (KKWYRK)
6. 6mer-1-387 (KKGRLR)
7. 6mer-1-310 (RKRQLK)
8. 6mer-1-309 (KKGICK)

1: 151; 2: 136; 3: 126; 4: 142; 5: 144; 6: 148; 7: 127; 8: 153

Provide reported Binding affinity for each item, in the same order as listed.
1. 6mer-1-351 (RRGLRK)
2. 6mer-1-316 (RKQIRK)
3. 6mer-1-213 (KRRVRK)
4. 6mer-1-205 (KRWRLR)

1. 141
2. 145
3. 127
4. 133

----------
Target: acetylcholine receptor (Homo sapiens)
Assay: SPR binding affinity (RU) of optimized 5mer/6mer/7mer peptides, Examples 6-7
Conditions: SPR, peptides at 10 μM; 6mer-2 Bottom sequence
Method: Based on the frequencies of occurrence of the top 7 amino acids from Table 7 in Example 5, 600 peptides comprising these amino acids (top combinations) and those comprising the 13 less frequently occurring amino acids (bottom combinations) were synthesized for each series of 5mer, 6mer-1, and 6mer-2. The binding affinity of each sequence for the acetylcholine receptor was measured using Surface Plasmon Resonance (SPR) analysis method. The peptides were tested at a concentration of 10 μM. […]
quantity_measured: Binding affinity (Ru)
One number for each entry, in Ru.

Consider the worked cases shown below.
substance: 6mer-2-1030 (RAPFKK)
Binding affinity / Ru: 28

substance: 6mer-2-1044 (KHTDKK)
Binding affinity / Ru: 41

substance: 6mer-2-1127 (KAAEKK)
Binding affinity / Ru: 42

Report Binding affinity for each item below.
1. 6mer-2-1063 (RFNVRK)
2. 6mer-2-1023 (KAEFKR)
3. 6mer-2-1099 (REDWRR)
4. 6mer-2-999 (RATIKR)

1: 24; 2: 26; 3: 21; 4: 31

Could I get Binding affinity for every one of these entries?
1. 6mer-2-1135 (RANWKR)
2. 6mer-2-1060 (KTNERK)
3. 6mer-2-1001 (RKKFKK)
4. 6mer-2-1157 (RNTDRK)
5. 6mer-2-1197 (KNCIKK)
6. 6mer-2-1109 (KEDMRK)
7. 6mer-2-1031 (RAWERK)
8. 6mer-2-1059 (RFADRR)

1: 29; 2: 35; 3: 37; 4: 37; 5: 23; 6: 26; 7: 33; 8: 35

List the reported Binding affinity of each substance below.
1. 6mer-2-1174 (RCEPRK)
2. 6mer-2-1185 (RIDAKK)
3. 6mer-2-1033 (KMDEKK)
4. 6mer-2-1025 (RCSHRR)
5. 6mer-2-1156 (KMNARR)

21
42
28
39
35

----------
For each entry below, report its Binding affinity value.
biological target: acetylcholine receptor (Homo sapiens); assay: SPR binding affinity (RU) of optimized 5mer/6mer/7mer peptides, Examples 6-7; conditions: SPR, Resonance Units; peptides tested at 10 μM; 6mer-2 Top sequence
One number for each entry, in Ru.

Previously resolved entries follow.
substance: 6mer-2-488 (KVYRRK)
Binding affinity / Ru: 146
//
substance: 6mer-2-544 (KVIQKR)
Binding affinity / Ru: 147

Hey, quick one: what's Binding affinity for each of these?
1. 6mer-2-577 (KRVQRR)
2. 6mer-2-599 (RRRYRK)

1: 139; 2: 121

List reported Binding affinity for each of these substances:
1. 6mer-2-582 (RWQTRK)
2. 6mer-2-554 (RWRCRR)
3. 6mer-2-436 (KVLYKR)
4. 6mer-2-486 (KQQSKK)
5. 6mer-2-546 (RVFTKK)
6. 6mer-2-480 (RRFTKK)
7. 6mer-2-450 (RQRYRK)

1. 148
2. 121
3. 148
4. 121
5. 127
6. 147
7. 123

Your task in this section: give Binding affinity for each listed record.
1. 6mer-2-591 (KGILRR)
2. 6mer-2-432 (KVVRKR)
3. 6mer-2-541 (KGQCRK)
4. 6mer-2-531 (KVIYKR)
5. 6mer-2-458 (RRFQRR)
6. 6mer-2-532 (KSITKR)

1: 146; 2: 148; 3: 126; 4: 148; 5: 122; 6: 147

Provide Binding affinity for all items below, preserving their order.
1. 6mer-2-549 (KQLCKK)
2. 6mer-2-504 (RGLTRK)
3. 6mer-2-417 (RWVYKK)
4. 6mer-2-433 (RWIQKR)
5. 6mer-2-529 (KQQRKR)
6. 6mer-2-576 (KGVSRR)
7. 6mer-2-424 (RLYCKK)
8. 6mer-2-501 (KSYSKK)

142
154
151
139
124
139
139
144

----------
Molecular target: acetylcholine receptor (Homo sapiens, UniProt P02708)
Assay: SPR binding affinity (RU) of optimized 5mer/6mer/7mer peptides, Examples 6-7
Details: SPR, Resonance Units; peptides tested at 10 μM; 6mer-2 Top sequence
Description: Based on the frequencies of occurrence of the top 7 amino acids from Table 7 in Example 5, 600 peptides comprising these amino acids (top combinations) and those comprising the 13 less frequently occurring amino acids (bottom combinations) were synthesized for each series of 5mer, 6mer-1, and 6mer-2. The binding affinity of each sequence for the acetylcholine receptor was measured using Surface Plasmon Resonance (SPR) analysis method. The peptides were tested at a concentration of 10 μM. […]
Please respond with reported Binding affinity for every item in the list.
One number for each entry, in Ru.

substance: 6mer-2-467 (KQYSRR)
Binding affinity [Ru]: 142

substance: 6mer-2-425 (KLQTKK)
Binding affinity [Ru]: 145

substance: 6mer-2-572 (KSQRRK)
Binding affinity [Ru]: 148

substance: 6mer-2-457 (RRVYKR)
Binding affinity [Ru]: 146

substance: 6mer-2-431 (KLILKR)
Binding affinity [Ru]: 135

substance: 6mer-2-586 (RWLSRK)
Binding affinity [Ru]: 121

Dear colleague, could you send me Binding affinity for each of the items below? Thanks.
1. 6mer-2-414 (KWRQKK)
2. 6mer-2-565 (KSRRRR)
3. 6mer-2-539 (KWYTKK)
4. 6mer-2-590 (KGRLRK)

1. 135
2. 147
3. 127
4. 148
